Source listed as patent US4789731A.

Listed compounds paired with reported MST (% T/C)
- System: P388 leukemia
- PROTOCOL DESCRIPTION: Antitumor effect against P388 leukemia, QD 1→9 ip
- Assay type: in vivo
- STUDY CONDITIONS: mice, 1 mg/kg/day

COMPOUND	MEASURE UNIT	MST (% T/C)
CCCCCCC/C=C/C=C/C(=O)N[C@H](C(=O)N[C@H]1C[C@@H](O)CCNC(=O)/C=C/[C@H](C)NC1=O)[C@@H](C)O [BU-2867T A]	% T/C	190
CCCCCCCCCCCCCC(=O)N[C@H](C(=O)NC1CC(O)CCNC(=O)/C=C/C(C)NC1=O)[C@@H](C)O (stereo partly drawn) [Example 3, n-Tetradecanoyl-III]	% T/C	150
CCCCCCCCCC=CC=CC(=O)NC(C(=O)NC1CC(O)CCNC(=O)C=CC(C)NC1=O)C(C)O (stereo not drawn) [BU-2867T C]	% T/C	170
CCCCCCCCCCCC(=O)N[C@H](C(=O)NC1CC(O)CCNC(=O)/C=C/C(C)NC1=O)[C@@H](C)O (stereo partly drawn) [Example 1, n-Dodecanoyl-III]	% T/C	150
CCCCCC=CCCC=CC=CC(=O)NC(C(=O)NC1CC(O)CCNC(=O)C=CC(C)NC1=O)C(C)O (stereo not drawn) [BU-2867T B]	% T/C	170
